TARGET OR SYSTEM: T1, human GIP receptor (human, UniProt P48546 22-466)
T1 sequence (looked up): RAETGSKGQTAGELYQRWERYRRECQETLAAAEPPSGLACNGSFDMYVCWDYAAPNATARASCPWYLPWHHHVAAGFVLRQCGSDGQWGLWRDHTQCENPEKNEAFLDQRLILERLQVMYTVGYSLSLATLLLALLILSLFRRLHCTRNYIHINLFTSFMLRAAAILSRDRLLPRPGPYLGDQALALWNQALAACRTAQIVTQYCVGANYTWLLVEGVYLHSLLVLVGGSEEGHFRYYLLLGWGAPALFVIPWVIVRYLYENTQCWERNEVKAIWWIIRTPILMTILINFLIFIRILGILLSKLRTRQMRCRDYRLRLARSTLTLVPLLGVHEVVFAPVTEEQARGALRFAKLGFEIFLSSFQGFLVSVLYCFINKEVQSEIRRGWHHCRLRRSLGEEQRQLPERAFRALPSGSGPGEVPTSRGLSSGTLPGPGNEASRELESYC
TEST DESCRIPTION: cell-based or functional assay
*1 amine or outer side, *2 acyl side, *3 side chain or, on linkers, in order; H or OH if unused. Where no end group is shown, it is not given here. Side-chain parts run from the residue outwards. [ ]: non-standard residue; d: D form. The star is where a group is joined. C18 diacid = O=C(O)CCCCCCCCCCCCCCCCC(=O)*; C16 diacid = O=C(O)CCCCCCCCCCCCCCC(=O)*; γGlu = O=C(O)[C@H](CCC(=O)[*:2])N[*:1]; Glutaryl = O=C(CCCC(=O)[*:2])[*:1]; Nle = CCCC[C@H](N)C(=O)O; AEEA = NCCOCCOCC(=O)O; Aib = CC(C)(N)C(=O)O
READOUT: cAMP agonism % Emax (%)
Answers are plain numbers, in %.

> print(dat)
                                     binder              readout  recorded.measurement
1  EGTFISDYSIAMDKIK([AEEA-AEEA-γGlu-C18 diacid])QQDFVNWLLAQKGPSSGAPPPS [AT589]  cAMP agonism % Emax                     0
2  Glutaryl-GTFISDYSIA[Nle]DKIK(C16 diacid)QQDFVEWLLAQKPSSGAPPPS-OH [AT700]  cAMP agonism % Emax                     3
3  EGTFISDYSI[Aib][Nle]DKIK(C16 diacid)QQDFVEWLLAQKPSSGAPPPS-OH [AT667]  cAMP agonism % Emax                     4
4  EGTFISDYSIAMDKIK([AEEA-AEEA-γGlu-C18 diacid])QQDFVNWLLAQKGPSSGAPPPS [AT433]  cAMP agonism % Emax                     0

Now examine the next entry.
Task item: Determine from records and report cAMP agonism % Emax for EGTFISDYSIA[Nle]DKIK([AEEA-AEEA-γGlu-C18 diacid])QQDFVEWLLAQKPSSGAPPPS-OH [AT683]
Reply: 0
